Recorded values, source patent EP4269437A1.

- target-of-assay: PD-1 (UniProt Q15116)
- Sequence (Q15116 25-170 limits assumed): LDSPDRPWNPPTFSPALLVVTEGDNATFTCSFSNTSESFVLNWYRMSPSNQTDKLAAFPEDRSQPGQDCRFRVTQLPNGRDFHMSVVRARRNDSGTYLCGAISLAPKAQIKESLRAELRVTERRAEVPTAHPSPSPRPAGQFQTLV
- assay-details: ELISA, TG1 supernatant on coated PD-1, anti-c-myc HRP
// reported OD450, clone binding with PD-1 per item
Enter your answer as a number in OD450; do not include the unit.

Guide cases for OD450, clone binding with PD-1, answers given:
binder: NB169 (VHH) VHH: QVQLVESGGGLVPPGGSLRLSCAASGFTFSSYPMSWYRQAPGRKRDFVAMLTGAGGSTDYADSVKGRFTISRDNAKNTVYLQMNSLKPEDTAVYYCNAPAAMRDYGIDYWGKGTLVNVSS
OD450, clone binding with PD-1 (OD450): 2.9

binder: NB200 (VHH) VHH: QVQLVESGGGLVQAGGSLTLSCAASGRTFNSYAMGWFRQAPGKEREFVAAISQNGGSQGYAEAVKDRFTISRDNTNKVVALQMNSLKPEDTAAYYCAADGDASDRSYAPPRDYEYEYWGQGTQVTVSS
OD450, clone binding with PD-1 (OD450): 2.31

binder: NB220 (VHH) VHH: QVQLQESGGGLLQAGDSLRLSCIVSGRTFSSYAIGWFRQAPGKEREFVAGINWSGRSQYYSESVKDRFTVSIDNAKNTVYLQMNSLKPEDTAVYYCAAERHLGVPTVRDDEYDDWGQGTQVTVSS
OD450, clone binding with PD-1 (OD450): 2.38

binder: NB159 (VHH) VHH: QVQLVESGGGSVQAGDSLRISCEASGRTFMRYSMGWFRQASGKEREFVAAISWGGSSTYYADSVKGRFIISRDNTKNTVFLQMNSLKPEDTAVYYCAADTNPSGSWDRPTNEAEYDYWGQGTQVTVSS
OD450, clone binding with PD-1 (OD450): 1.84

binder: NB194 (Fc fusion, not shown: a dimerising Fc or GST) VHH: QVQLVETGGGLVRAGGSLRLSCTASGRPFSIYDMGWFRQAPDKERESVAVINLSRGDTYYADSVKGRFTISLDSAKNTVYLQMNSLKPEDTAVYSCGVDRRQYGLGIPPLADHWGQGTQVTVSS
OD450, clone binding with PD-1 (OD450): 2.83

binder: NB221 (VHH) VHH: EVQLVESGGGLVQAGDSLRLSCAASGRTFSSVAMGWFRQAPGKEREFVAAISRSGGSAGYADSVKDRSTIARDNTKNTVYLQMNSLKPEDTAVYFCAASEYDFCSTHGCYDYWGQGTQVTISL
OD450, clone binding with PD-1 (OD450): 2.62

binder: NB153 (VHH) VHH: DVQLQESGGGLVQAGGSLRVSCAASGRTFSSYGMGWFRQAPGKERELVAAITNTGLTYYADSVEGRFTISRDAAKNTVYLQMNSLEPEDTAVYYCNAGAPPPGGLGYDESDYWGQGTLVTVSS
OD450, clone binding with PD-1 (OD450): 3.29

binder: NB154 (VHH) VHH: QVQLVESGGGLVQAGDSLRLSCAASGGTFSGYGMGWFRQAPGKEREFVAGISRHGGSTGYSSSVKDRFTISRDNAKNTVDLQMNSLKPEDTAVYHCAAALRPDYGDSYVYTSTSNYEYWGQGTQVTVSS
OD450, clone binding with PD-1 (OD450): 2.61

binder: NB182 (Fc fusion, not shown: a dimerising Fc or GST) VHH: QVQLVESGGGLVQAGGSLRLSCAASGDTSFISAAGWYRQAPGKERELVAAITNTGITYYPDSVKGRFTISRDNAKNTVYLQMNNLKPEDTAVYYCNAGAPPPGGLGYDESDYWGQGTQVTVSS
OD450, clone binding with PD-1 (OD450): 3.08

binder: NB215 (VHH) VHH: EVQVVESGGGLVQAGDSLRLSCAASGGTISGYEMGWFRQAPGKEREFVAGISRNGRSTGYSDSAKDRFTISRDNAKNTVYLQMNSLKPEDTAVYYCAAGLKADYGDSYVDTSTRNYNYWGQGTQVTVSS
OD450, clone binding with PD-1 (OD450): 3.29

Ask | Look up OD450, clone binding with PD-1: NB733 (VHH) VHH: QVQLVESGGGLVQPGASLRLSCAAAGFTFSSWAMTWVRQAPGKGLEWVSAISSGSGEMADYADSVKGRFAISRDNAKNTLYLQMNNLQPEDTAMYYCAKGGYLTYANLGPGTQVTVSS
Reply | 1.03

Ask | Reported OD450, clone binding with PD-1, binder NB218 (VHH) VHH: QLQLVESGGGLVQAGDSLRLSCAASGRTFSSIAMGWFRQAPGKEREFVAAISRSGGSAGYADSVKDRSTIVRDNTKNTVYLQMNSLKPEDTAVYFCAASDYDFCSTHGCYDYWGQGTQVTISS : ____
Reply | 2.62

Ask | Entry under review: NB148 (VHH) VHH: QVQLVESGGGLVQAGGSLRLSCAASGGTFSGSELGWFRQAPGKEREFVAGISRNGGTTGYSDSVKDRFTIARDNAKNTVYLQMNSLKPEDTAVYYCAAGLRAYYGDSYVDTMTENYNYWGQGTQVTVSS . Reported OD450, clone binding with PD-1?
Reply | 2.84
